assay: Cytotoxicity against human Hs 578T cells assessed as cell growth at 10 uM after 24 hrs by SRB assay; format: functional; details: read-out: Activity
measured.endpoint: growth at 10 µM (%)
Use % as the unit, but write only the number.

Take a look at these entries with their results.
{"smiles.representation": "COCCCNc1nc(NC(=O)c2ccc(Cl)cc2C)cc(-c2cccnc2)n1", "unit.spec": "%", "growth at 10 µM": 103}
{"smiles.representation": "COc1cc(OC)cc(C(=O)Nc2cc(-c3cccnc3)nc(NCCCN3CCOCC3)n2)c1", "unit.spec": "%", "growth at 10 µM": 69}
{"smiles.representation": "O=C(Nc1cc(-c2cccnc2)nc(NCCCN2CCOCC2)n1)c1cc(Br)cc(C(F)(F)F)c1", "unit.spec": "%", "growth at 10 µM": 54}
{"smiles.representation": "Cc1cc(Cl)ccc1C(=O)Nc1cc(-c2cccnc2)nc(NCCCN2CCOCC2)n1", "unit.spec": "%", "growth at 10 µM": 96.9}
{"smiles.representation": "COCCCNc1nc(NC(=O)c2cc(OC)cc(OC)c2)cc(-c2cccnc2)n1", "unit.spec": "%", "growth at 10 µM": 95.3}
{"smiles.representation": "O=C(Nc1cc(-c2cccnc2)nc(NCCCN2CCOCC2)n1)c1ccc(F)cc1Cl", "unit.spec": "%", "growth at 10 µM": 105}

# evaluate next
I have this molecule here, COCCCNc1nc(NC(=O)c2cc(Br)cc(C(F)(F)F)c2)cc(-c2cccnc2)n1 , and I need its recorded growth at 10 µM.
83

###

test system: NCI-H226; assay: Cytotoxicity against human NCI-H226 cells assessed as cell growth at 10 uM after 24 hrs by SRB assay; assay type: functional; conditions: NCI-H226, 24 h, read-out: Activity
Binary classification by growth at 10 µM, with 90% as an inclusive lower bound for condition met; all other cases are condition not met.

{"smiles.representation": "O=C(Nc1cc(-c2cccnc2)nc(NCCCN2CCOCC2)n1)c1cc(Br)cc(C(F)(F)F)c1", "label": "condition not met"}
{"smiles.representation": "O=C(Nc1cc(-c2cccnc2)nc(NCCCN2CCOCC2)n1)c1ccc(F)cc1Cl", "label": "condition met"}

Could you verify whether the entry COCCCNc1nc(NC(=O)c2cc(OC)cc(OC)c2)cc(-c2cccnc2)n1 shows growth at 10 µM of no less than 90%?
condition met

Moving on to the next compound: COc1cc(OC)cc(C(=O)Nc2cc(-c3cccnc3)nc(NCCCN3CCOCC3)n2)c1
condition not met

Moving on to the next compound: Cc1cc(Cl)ccc1C(=O)Nc1cc(-c2cccnc2)nc(NCCCN2CCOCC2)n1
condition not met

###

tested on: K562; assay: Cytotoxicity against human K562 cells assessed as cell growth at 10 uM after 24 hrs by SRB assay; assay type: functional; conditions: K562, 24 h, read-out: Activity
measured.endpoint: growth at 10 µM

Take a look at these entries with their results.
{"smiles.representation": "COc1cc(OC)cc(C(=O)Nc2cc(-c3cccnc3)nc(NCCCN3CCOCC3)n2)c1", "measured.value": "74.1%"}
{"smiles.representation": "O=C(Nc1cc(-c2cccnc2)nc(NCCCN2CCOCC2)n1)c1ccc(F)cc1Cl", "measured.value": "83.3%"}
{"smiles.representation": "COCCCNc1nc(NC(=O)c2ccc(Cl)cc2C)cc(-c2cccnc2)n1", "measured.value": "104%"}
{"smiles.representation": "O=C(Nc1cc(-c2cccnc2)nc(NCCCN2CCOCC2)n1)c1cc(Br)cc(C(F)(F)F)c1", "measured.value": "8.84%"}
{"smiles.representation": "Cc1cc(Cl)ccc1C(=O)Nc1cc(-c2cccnc2)nc(NCCCN2CCOCC2)n1", "measured.value": "113%"}
{"smiles.representation": "COCCCNc1nc(NC(=O)c2cc(OC)cc(OC)c2)cc(-c2cccnc2)n1", "measured.value": "86.1%"}

I have this compound here, COCCCNc1nc(NC(=O)c2cc(Br)cc(C(F)(F)F)c2)cc(-c2cccnc2)n1 , and I need its recorded growth at 10 µM.
73.3%

The origin of these recorded values is ChEMBL document CHEMBL3774345.
